Molecular target: Jurkat cells expressing CXCR4 (Homo sapiens, UniProt P61073)
Construct: endogenous in cells
Sequence (P61073 whole entry): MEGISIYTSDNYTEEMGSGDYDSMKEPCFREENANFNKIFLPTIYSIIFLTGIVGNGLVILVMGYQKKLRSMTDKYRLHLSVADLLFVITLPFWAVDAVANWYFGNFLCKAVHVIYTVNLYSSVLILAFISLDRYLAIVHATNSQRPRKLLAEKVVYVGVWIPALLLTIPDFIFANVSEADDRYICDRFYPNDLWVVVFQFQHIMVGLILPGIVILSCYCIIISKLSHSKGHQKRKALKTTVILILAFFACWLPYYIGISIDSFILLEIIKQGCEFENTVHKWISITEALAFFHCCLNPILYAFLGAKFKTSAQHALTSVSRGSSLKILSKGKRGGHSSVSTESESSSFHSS
Experiment: Chemokine (CXCL12-AF647) binding inhibition assay
Settings: CXCL12-AF647 25 ng/mL, read-out: IC50 CXCL-12 binding Jurkat
Protocol: Chemokine (CXCL12-AF647) Binding Inhibition Assay Jurkat cells expressing CXCR4 were washed once with assay buffer (Hanks' balanced salt solution with 20 mM HEPES buffer and 0.2% bovine serum albumin, pH 7.4) and then incubated for 15 min at room temperature with the test compounds diluted in assay buffer at dose-dependent concentrations. Subsequently, CXCL12-AF647 (25 ng/mL) was added to the compound-incubated cells. The cells were incubated for 30 min at room temperature. […]
Collected IC50 values appear next to each entry.

{"columns": ["molecule", "target or system", "IC50"],
 "data": [
  ["Cc1cccnc1[C@@H]1CCC[C@H](c2nc3ccccc3n2C2CCN(C)CC2)N1C", "Jurkat cells expressing CXCR4 (Homo sapiens, UniProt P61073)", "0.01 to 100 nM"],
  ["Cc1cccnc1[C@@H]1C[C@@H](O)C[C@H](c2nc3cccc(N4CCN(C)CC4)c3[nH]2)N1C", "Jurkat cells expressing CXCR4 (Homo sapiens, UniProt P61073)", "0.01 to 100 nM"],
  ["Cc1nccnc1[C@@H]1CCC[C@H](c2nc3cccc(N4CCN(C)CC4)c3[nH]2)N1C", "Jurkat cells expressing CXCR4 (Homo sapiens, UniProt P61073)", "100 to 1000 nM"]
]}

Next up:
Value lookup for IC50; key = CN1CC2CCC(C1)N2c1cccc2nc([C@H]3CCC[C@@H](c4ncccc4Cl)N3)[nH]c12
0.01 to 100 nM

* * *

assay: 7-day mouse toxicology study: toxicokinetics (plasma, brain, CSF), 30 mg/kg/day PO; assay type: in vivo, male C57BL/6 mice; conditions: male, C57BL/6, mouse, brain, po, 30 mg/kg, Day 1, Brain, 30 mg/kg PO
metric: Tmax (h)
Just the number in h, nothing appended.

I am curious: what Tmax value has been reported for Cc1cccnc1[C@@H]1CCC[C@H](c2nc3cccc(N4CCN(C)CC4)c3[nH]2)N1C (racemic) ?
4

* * *

Assay: in vitro
Conditions: human, Caco-2, pH 7.4
Method: Example 37: Caco-2 Permeability Assay The goal of this assay was to evaluate the intestinal absorption potential of drug candidates using Caco-2 cell lines. HBSS buffer with 0.3% DMSO and 5 μM LY: add 150 μL DMSO and 50 μL LY (5 mM) into 50 ml HBSS buffer (pH 7.4). HBSS buffer with 0.1% DMSO and 5 μM LY: add 50 μL DMSO and 50 μL LY (5 mM) into 50 mL HBSS buffer (pH 7.4). […] 1. Papp values were calculated based on calculated concentrations. […]
metric: Papp A→B at 90 min, 10 μM

Papp A→B at 90 min, 10 μM for Cc1cc(F)cnc1[C@@H]1CCC[C@H](c2nc3cccc(N4CCN(C)CC4)c3[nH]2)N1C ?
10 to 30 ×10⁻⁶ cm/s

Record request: Papp A→B at 90 min, 10 μM value, item CN(C)C1CCN(c2cccc3nc([C@H]4CCC[C@@H](c5ncccc5Cl)N4)[nH]c23)CC1
0.1 to 10 ×10⁻⁶ cm/s

I have this compound here, Cc1cc(F)cnc1[C@@H]1CCC[C@H](c2nc3cccc(N4CCN(C)CC4)c3[nH]2)N1 , and I need its recorded Papp A→B at 90 min, 10 μM.
0.1 to 10 ×10⁻⁶ cm/s

Need Papp A→B at 90 min, 10 μM, item COc1cccnc1[C@@H]1CCC[C@H](c2nc3cccc(N4CCN(C)CC4)c3[nH]2)N1C
0.1 to 10 ×10⁻⁶ cm/s

Which measured Papp A→B at 90 min, 10 μM value corresponds to Cc1cccnc1[C@@H]1C[C@@H](O)C[C@H](c2nc3cccc(N4CCN(C)CC4)c3[nH]2)N1C ?
0.1 to 10 ×10⁻⁶ cm/s

Could you share which Papp A→B at 90 min, 10 μM value was measured for CCN1CCN(c2cccc3nc([C@H]4CCC[C@@H](c5ncccc5Cl)N4)[nH]c23)CC1 ?
10 to 30 ×10⁻⁶ cm/s

Consider the compound shown here: CN1CCN(c2cccc3nc([C@H]4CCC[C@@H](c5ncccc5OC5CC5)N4C)[nH]c23)CC1 What is its recorded Papp A→B at 90 min, 10 μM?
10 to 30 ×10⁻⁶ cm/s

Using the record for Cc1cccnc1[C@@H]1CCC[C@H](c2nc3cccc(N4CCN(C)CC4=O)c3[nH]2)N1C , report its Papp A→B at 90 min, 10 μM.
0.1 to 10 ×10⁻⁶ cm/s
